Tested on: human Factor 7 mRNA
Measurement Notes: Antisense inhibition of human Factor 7 mRNA in HepB3 cells, lipofectin, 50 nM, real-time RT-PCR
Assay type: cell-based
Test Conditions: Example 1; HepB3 cells, lipofectin, 50 nM, ~24 h, relative to untreated control cells
In the oligonucleotide strings, read from the 5' end, every base follows the letter of its sugar. An asterisk marks phosphorothioate; unmarked linkages are phosphodiester. Other units and linkages are bracketed, terminal groups are in braces. A string of capitals states the bases alone. e = 2'-O-(2-methoxyethyl) (MOE); [5mC] = 5-methylcytosine; d = 2'-deoxy (DNA)
Answer 0.0 if % Inhibition (human Factor 7 mRNA) is under 60%, and 1.0 if it is 60% or more.

- Substance: "407888 (antisense e[5mC]*eG*eA*eA*eG*dA*d[5mC]*dT*dG*d[5mC]*dA*dG*d[5mC]*d[5mC]*dA*eG*eG*e[5mC]*eA*eG) [compound 407888]"
  Discrete Label: 0.0
- Substance: "407935 (antisense eA*eT*eG*e[5mC]*eA*dT*dG*dG*dT*dG*dA*dT*dG*d[5mC]*dT*eT*e[5mC]*eT*eG*eA) [compound 407935]"
  Discrete Label: 1.0
- Substance: "407624 (antisense eG*eA*eG*eA*e[5mC]*d[5mC]*dA*d[5mC]*d[5mC]*d[5mC]*dA*dG*dA*dT*dG*eG*eT*eG*eT*eT) [compound 407624]"
  Discrete Label: 1.0
- Substance: "407644 (antisense eG*eA*eG*eG*eA*d[5mC]*dA*dG*d[5mC]*dA*d[5mC]*dA*d[5mC]*dA*dT*eG*eG*eA*eG*eT) [compound 407644]"
  Discrete Label: 1.0

* * *

Test system: human Factor 7 mRNA
Measurement Notes: Antisense inhibition of human Factor 7 mRNA in HepB3 cells, lipofectin, 50 nM, real-time RT-PCR
Type: cell-based
Test Conditions: Example 1; HepB3 cells, lipofectin, 50 nM, ~24 h, relative to untreated control cells
In the oligonucleotide strings, read from the 5' end, every base follows the letter of its sugar. An asterisk marks phosphorothioate; unmarked linkages are phosphodiester. Other units and linkages are bracketed, terminal groups are in braces. A string of capitals states the bases alone. e = 2'-O-(2-methoxyethyl) (MOE); [5mC] = 5-methylcytosine; d = 2'-deoxy (DNA)
Entries and their measured % Inhibition (human Factor 7 mRNA) follow.
Assay Endpoint: % Inhibition (human Factor 7 mRNA) (%)

- Substance: "407921 (antisense e[5mC]*e[5mC]*eA*e[5mC]*eA*dG*dG*d[5mC]*d[5mC]*dA*dG*dG*dG*d[5mC]*dT*eG*e[5mC]*eT*eG*eG) [compound 407921]"
  Reported Value: 65
- Substance: "407944 (antisense e[5mC]*e[5mC]*eA*eG*eT*dG*dG*dG*dT*dG*dG*d[5mC]*dA*dG*dG*e[5mC]*eA*e[5mC]*e[5mC]*eA) [compound 407944]"
  Reported Value: 59
- Substance: "407958 (antisense eG*e[5mC]*e[5mC]*eG*eT*dG*d[5mC]*dT*dT*dG*d[5mC]*d[5mC]*dG*dG*dA*eG*eT*e[5mC]*eT*eG) [compound 407958]"
  Reported Value: 58
- Substance: "407896 (antisense e[5mC]*eG*eT*eG*eT*dG*dG*dT*d[5mC]*dA*d[5mC]*dT*dG*d[5mC]*dA*eG*eT*eA*e[5mC]*eT) [compound 407896]"
  Reported Value: 73
- Substance: "407603 (antisense eT*eA*eA*eG*eA*dA*dA*dT*d[5mC]*d[5mC]*dA*dG*dA*dA*d[5mC]*eA*eG*e[5mC]*eT*eT) [compound 407603]"
  Reported Value: 54
